Assay: Oral bioavailability in rat
Format: ADME, organism-based
Conditions: in vivo

>  <smiles.text>
CCCN(Cc1ccoc1)C(=O)c1cc(C)cc(OCC2(CON=C(N)N)CC2)c1

>  <unit.abbrev>
%

>  <bioavailability>
24

$$$$
>  <smiles.text>
Cc1cccc(S(=O)(=O)Nc2ccc(C)n(CC(=O)NCCONC(=N)N)c2=O)c1

>  <unit.abbrev>
%

>  <bioavailability>
6

$$$$

----------
Assay: Volume of distribution at steady state in rat at 2 mg/kg, iv
Type: ADME, organism-based
Set-up: dose 2 mg/kg, route intravenous
Conditions: in vivo, read-out: Vdss

>  <smiles.text>
N#Cc1ccc(NCC(F)(F)c2ccccn2)c(F)c1CC(=O)NCCONC(=N)N

>  <unit.abbrev>
L/kg

>  <Vd>
6

$$$$
